Target: murine M1 muscarinic acetylcholine receptor (Rattus norvegicus)
Sequence (P08482 whole entry): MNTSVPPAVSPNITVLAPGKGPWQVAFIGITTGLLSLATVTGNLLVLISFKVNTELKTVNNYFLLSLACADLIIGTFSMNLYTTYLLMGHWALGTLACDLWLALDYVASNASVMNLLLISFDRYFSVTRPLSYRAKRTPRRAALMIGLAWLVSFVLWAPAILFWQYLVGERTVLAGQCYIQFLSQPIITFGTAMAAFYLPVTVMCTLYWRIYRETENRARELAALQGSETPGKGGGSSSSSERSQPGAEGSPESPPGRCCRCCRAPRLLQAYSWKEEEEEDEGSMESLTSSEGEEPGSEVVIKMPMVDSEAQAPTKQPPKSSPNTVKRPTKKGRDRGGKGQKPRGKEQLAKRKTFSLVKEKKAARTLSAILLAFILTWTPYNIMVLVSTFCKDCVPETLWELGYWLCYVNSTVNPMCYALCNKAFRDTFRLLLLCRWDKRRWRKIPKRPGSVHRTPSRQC
Structures can show the parent of a compound that is named as a salt.
Assign labels as follows, please: met for IC50 below 20 nM; not met for IC50 equal to or exceeding 20 nM.

Prompt: Dear colleague, could you confirm whether IC50 of CC(C)[N+](C)(CCOC(=O)C1c2ccccc2Oc2ccccc21)C(C)C [Propantheline bromide] falls below 20 nM? Thanks.
Response: met

Prompt: Dear colleague, could you confirm whether IC50 of CC(=O)O[C@H]1C[C@@H]2CC[C@@H]3[C@H](CC[C@@]4(C)[C@H]3C[C@H]([N+]3(C)CCCCC3)[C@@H]4OC(C)=O)[C@@]2(C)C[C@@H]1[N+]1(C)CCCCC1 [Pancuronium bromide] falls below 20 nM? Thanks.
Response: not met

Prompt: Dear colleague, could you confirm whether IC50 of C[N+]1(C)[C@@H]2CC[C@H]1C[C@@H](OC(=O)C(CO)c1ccccc1)C2 (mixture of isomers) [Atropine methyl bromide] falls below 20 nM? Thanks.
Response: met

Prompt: Dear colleague, could you confirm whether IC50 of C[N+]1(C)[C@@H]2CC[C@H]1C[C@@H](OC(=O)C(CO)c1ccccc1)C2 (mixture of isomers) [Atropine methyl nitrate] falls below 20 nM? Thanks.
Response: met

Prompt: Dear colleague, could you confirm whether IC50 of Cc1scc2c1N(C(=O)CN1CCN(C)CC1)c1ccccc1NC2=O [Telenzepine dihydrochloride] falls below 20 nM? Thanks.
Response: not met

Prompt: Dear colleague, could you confirm whether IC50 of CN1[C@@H]2CC[C@H]1C[C@@H](OC(c1ccccc1)c1ccccc1N)C2 (stereo partly shown) falls below 20 nM? Thanks.
Response: met

Prompt: Dear colleague, could you confirm whether IC50 of CC[N+](CC)(CC)CCOc1ccc(/C=C/c2ccccc2)cc1 falls below 20 nM? Thanks.
Response: not met
